For each record, write down the corresponding cytotoxicity at 70.5 h.
test: Human HepG2 cell viability assay in 384 well format; assay type: toxicity, cell-based; parameters: dose 125 nL, time 70.5 hour; concentration not given beside the values; details: HepG2 cells, read-out: Inhibition

>>> endpoint_value("Cc1cc(Cn2c(=O)c3c(C(F)(F)F)cc(C)nc3n2C)on1")
"-3.01%"
>>> endpoint_value("Cc1cc(Cl)ccc1-n1ncc(C(=O)NCC2COC(C)(C)O2)c1N (configuration not stated)")
"23.9%"
>>> endpoint_value("CCCN(CCn1c(=O)oc2ccccc21)CC1CC1")
"1.08%"
>>> endpoint_value("O=C(c1ccc(F)cc1)N1CCC2(CCCN2CC2CC2)CC1")
"-14%"
>>> endpoint_value("Cc1nc(CCC(=O)NC2CCC2)cc(C2CCCNC2)n1 (configuration not stated)")
"-9.96%"
>>> endpoint_value("CN(C)C(=O)CNC(=O)c1ccc2ccc(N(C)CC3CC3)n2c1")
"-12.4%"

Provide cytotoxicity at 70.5 h values for the following items, in order.
1. Cc1cc(N(C)C)nc(NCCn2cccn2)n1
2. Cc1cnn(CC2CCN(CC(O)c3ccccc3F)CC2)c1 (configuration not stated)
3. NCC1CCCCN1C(=O)Cc1ccc(F)c(F)c1 (configuration not stated)

Result block:
-10%
8.3%
-9.5%

Provide cytotoxicity at 70.5 h values for the following items, in order.
1. Cc1nc(CN2CCC(c3ccnn3CCO)CC2)oc1C
2. O=C(NC[C@H]1CC[C@H](c2ccnc3ncnn32)CC1)C1CC1
3. CC(C(=O)NC1(C#N)CCCCC1)N1CCc2c(ncn2C)C1 (configuration not stated)

Result block:
1.65%
22.4%
-3.36%

Numbers sourced from ChEMBL document CHEMBL3507680.
